# System: CRL-7250
# assay-summary: Cytotoxic Profiling of Annotated Libraries Using Quantitative High-Throughput Screening (AID 1296008); further: nearly all actives have a fitted effect of over 60% in size
# condition: Five cell lines viability, CellTiter-Glo ATP luminescence, 48-72 h
# Procedure: Cell-based phenotypic screening is a commonly used approach to discover biological pathways, novel drug targets, chemical probes and high-quality hit-to-lead molecules. […] A pintool (Kalypsys) was used to transfer 23 nL of compound solution to the 1536-well assay plates. […] Plates were left at room temperature for 10 min before imaging the ATP-coupled luminescence using a ViewLux microplate imager (PerkinElmer, Waltham, MA).
Inconclusive results are not listed. Active and inactive are the calls of the source. The call rests on the fitted dose curve; in most records, active means well fitted inhibition curve with a large enough effect; inconclusive means small, poorly fitted or top-dose-only effect; inactive means flat fitted curve, though single readings scatter.
Log the outcome using a class from 1.0 for active, 0.0 for inactive

O=C1CN(/N=C/c2ccc([N+](=O)[O-])o2)C(=O)N1 ... 0.0
COC(=O)c1nc(Cl)c(Cl)nc1N ... 1.0
N=C1N=C(N)c2cc3ccccc3cc21 ... 1.0
CO[C@@]1(NC(=O)Cc2cccs2)C(=O)N2C(C(=O)O)=C(COC(N)=O)CS[C@@H]21 ... 0.0
CCCSc1ccc2nc(NC(=O)OC)[nH]c2c1 ... 1.0

Enquiry: What did the test return for CCC1C(=O)OCC1Cc1cncn1C (configuration not stated) ?
Return: 0.0

Enquiry: What did the test return for CN(C)c1ccc(C(=C2C=CC(=[N+](C)C)C=C2)c2ccccc2)cc1 ?
Return: 1.0

---

# assay-summary: Confirmation and Secondary Assay for Modulators of Hemoglobin Beta Chain Splicing at IVS2 654 locus (AID 910);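 further: HeLa cells stably carrying EGFP split by mutant beta-globin IVS2-654 intron; per-well total GFP intensity by laser scanning cytometry after 2-day treatment; % of control where 0% means no effect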
# condition: HeLa EGFP-654 splicing reporter, GFP fluorescence, 48 h; series mostly up to 46.1 µM
The source made the active and inactive calls. Calls follow the shape of the dose curve; as a rule, active = well fitted activation curve with a large enough effect; inconclusive = small, poorly fitted or top-dose-only effect; inactive = flat fitted curve, though single readings scatter.
assay-endpoint: outcome

A selection of reference data follows.
Cc1c(Nc2ncccc2C(=O)O)cccc1C(F)(F)F ... inactive
NCCCS(=O)(=O)O ... inactive
CN1C2CCC1CC(OC(=O)C(O)c1ccccc1)C2 (centres undefined) ... inactive
CCCCCCOc1ccccc1C(N)=O ... inactive
CC(C(=O)O)c1ccc(C(=O)c2cccs2)cc1 (centres undefined) ... inactive
CC1OC1P(=O)(O)O (centres undefined) ... inactive

Enquiry: Determine from records and report outcome for S=c1[nH]c2ccccc2s1
Return: inactive

Enquiry: Determine from records and report outcome for CCCSc1ccc2nc(NC(=O)OC)[nH]c2c1
Return: inactive

Enquiry: Determine from records and report outcome for Nc1nc(Cl)nc2c1ncn2[C@@H]1O[C@H](CO)[C@@H](O)[C@H]1O
Return: inactive

Enquiry: Determine from records and report outcome for O=C(O)c1cc(=O)c2ccccc2[nH]1
Return: inactive

Enquiry: Determine from records and report outcome for O=C(O)c1ccccc1Nc1cccc(C(F)(F)F)c1
Return: inactive

Enquiry: Determine from records and report outcome for CC(C)NCC(O)COc1cccc2ccccc12 (centres undefined)
Return: inactive

Enquiry: Determine from records and report outcome for COc1cc(NC(C)CCCN)c2ncccc2c1 (centres undefined)
Return: inactive

Enquiry: Determine from records and report outcome for CCCCC1C(=O)N(c2ccccc2)N(c2ccc(O)cc2)C1=O (centres undefined)
Return: inactive

Enquiry: Determine from records and report outcome for Cc1c(N)c(=O)n(-c2ccccc2)n1C
Return: inactive

Enquiry: Determine from records and report outcome for O=C1CN(/N=C/c2ccc([N+](=O)[O-])o2)C(=O)N1
Return: inactive

---

# assay-summary: qHTS assay for measurement of the activity of small molecule inhibitors on Zika virus induced Caspase-3 activity in human iPSC derived neural progenitor cells (hNPCs) (AID 1224857); further: nearly all actives have a fitted effect of over 65% in size
# condition: hNPCs ZIKV-induced caspase-3/7, Caspase-Glo luminescence, 6 h; series mostly up to 45.7 µM
Results filed as inconclusive are left out. Active and inactive are the calls of the source. Calls come from the whole dose curve; as a rule, active = well fitted inhibition curve with a large enough effect; inconclusive = small, poorly fitted or top-dose-only effect; inactive = no such curve, though single readings can be large or run the other way.
Log the outcome using a class from active, inactive

CC(C)(C=O)Cc1cc(C(C)(C)C)c(O)c(C(C)(C)C)c1 ... inactive
C/C(=N\O)c1ccc(OCC(=O)N2CCCCC2)cc1 ... active
C=C[C@H]1CN2CC[C@@H]1C[C@H]2[C@H](O)c1ccnc2ccc(OC)cc12 ... inactive

Enquiry: What did the test return for NC(=O)C(=O)O ?
Return: inactive

Enquiry: What did the test return for N#C/C(=C\c1ccc(-c2cc(Cl)ccc2Cl)o1)C(=O)Nc1cccc2ncccc12 ?
Return: inactive

Enquiry: What did the test return for O=C1NC(=O)c2c1c(-c1ccccc1)cc1[nH]c3ccc(O)cc3c21 ?
Return: inactive

Enquiry: What did the test return for CC(C)NC[C@H](O)COc1cccc2[nH]ccc12 ?
Return: inactive

Enquiry: What did the test return for CN1CC(=O)N/C1=N/C(=O)Nc1cccc(Cl)c1 ?
Return: active

Enquiry: What did the test return for Brc1cc2c(cc1[C@H]1Nc3ccccc3[C@H]3C=CC[C@H]31)OCO2 ?
Return: inactive

Enquiry: What did the test return for O=C(O)CNC(=O)C(CS)Cc1ccccc1 (stereo not drawn) ?
Return: inactive

Enquiry: What did the test return for Cn1c(=O)c(-c2c(Cl)cccc2Cl)cc2cnc(Nc3ccc(N4CCOCC4)cc3)nc21 ?
Return: inactive

Enquiry: What did the test return for O=C(/C=C/c1ccc(O)cc1)c1ccc(O)cc1O ?
Return: active

Enquiry: What did the test return for CC(C(=O)O)c1ccc(C(=O)c2cccs2)cc1 (stereo not drawn) ?
Return: active

Enquiry: What did the test return for CC(C)(NS(=O)(=O)c1ccc(Oc2ccc(F)cc2)cc1)C(=O)NO ?
Return: inactive

Enquiry: What did the test return for CN1CCc2ccccc2Cc2[nH]c3ccccc3c2CC1 ?
Return: inactive

Enquiry: What did the test return for Cc1c(N)c(=O)n(-c2ccccc2)n1C ?
Return: inactive

Enquiry: What did the test return for O=C(O)CC1CCCc2ccccc2C1O (stereo not drawn) ?
Return: inactive

Enquiry: What did the test return for Nc1ccn([C@H]2O[C@H](CO)[C@@H](O)C2(F)F)c(=O)n1 ?
Return: inactive

---

# assay-summary: qHTS of Nrf2 Activators: LOPAC Validation (AID 624149); further: 0% is about no effect
# condition: Nrf2/ARE reporter cell assay; series mostly up to 46.1 µM
The source made the active and inactive calls. Calls come from the whole dose curve; as a rule, active = well fitted curve in the direction sought with a large enough effect; inconclusive = small, poorly fitted or top-dose-only effect, or effect the other way, or another doubt; inactive = no such curve, though single readings can be large or run the other way.
assay-endpoint: outcome

A selection of reference data follows.
C#C[C@]1(O)CC[C@H]2[C@@H]3CCC4=Cc5oncc5CC4(C)[C@H]3CCC21C (stereo partly drawn) ... inactive
N#C/C(=C\c1c[nH]c2ccccc12)C(=O)c1ccc(O)c(O)c1 ... inactive
O=C(Nc1cccc(C(=O)Nc2ccc(S(=O)(=O)O)c3cc(S(=O)(=O)O)cc(S(=O)(=O)O)c23)c1)Nc1cccc(C(=O)Nc2ccc(S(=O)(=O)O)c3cc(S(=O)(=O)O)cc(S(=O)(=O)O)c23)c1 ... inactive
CC1(C)CCC=[N+]1[O-] ... inactive
NO ... inactive
CCCCCCCCCCCCCCCCCC(=O)OC(CC(=O)O)C[N+](C)(C)C (stereo not drawn) ... inactive

Enquiry: Determine from records and report outcome for C=CC(C)=C[C@@]1(C)SC(=O)C(C)=C1O
Return: inactive

Enquiry: Determine from records and report outcome for Oc1ccc(C2CNCc3sccc32)cc1O (stereo not drawn)
Return: inactive

---

# Test system: MKL-1
# assay-summary: qHTS assay to identify novel small-molecules to repurpose for Merkel cell carcinoma treatment (AID 1296009); further: nearly all actives have a fitted effect of over 60% in size
# condition: MCC and control cell lines, CellTiter-Glo viability, 72 h; series mostly up to 46 µM
Inconclusive results are not listed. Active and inactive are the calls of the source. Calls follow the shape of the dose curve; as a rule, active = well fitted inhibition curve with a large enough effect; inconclusive = small, poorly fitted or top-dose-only effect; inactive = flat fitted curve, though single readings scatter.
Log the outcome using a class from active, inactive

# example entries with known answers
O=c1cc(-c2ccccc2)oc2ccccc12 ... inactive
CCCC(=O)OC[C@@H](OC(=O)CCC)[C@@H](OC(=O)CCC)[C@H](Cn1c2nc(=O)[nH]c(=O)c-2nc2cc(C)c(C)cc21)OC(=O)CCC ... active
Nc1cc(-c2ccncc2)c[nH]c1=O ... inactive
CN(C)CCn1nnnc1SCC1=C(C(=O)O)N2C(=O)[C@@H](NC(=O)Cc3csc(N)n3)[C@H]2SC1 ... inactive
Cc1ccc(O)c(-n2nc3ccccc3n2)c1 ... inactive

Enquiry: What did the test return for CN(C)c1ccc(C(=C2C=CC(=[N+](C)C)C=C2)c2ccccc2)cc1 ?
Return: active

Enquiry: What did the test return for CNC(=O)c1c(I)c(NC(=O)CCCCC(=O)Nc2c(I)c(C(=O)O)c(I)c(C(=O)NC)c2I)c(I)c(C(=O)O)c1I ?
Return: inactive

Enquiry: What did the test return for Cc1c(Nc2ncccc2C(=O)O)cccc1C(F)(F)F ?
Return: inactive

Enquiry: What did the test return for CO[C@@]1(NC(=O)Cc2cccs2)C(=O)N2C(C(=O)O)=C(COC(N)=O)CS[C@@H]21 ?
Return: inactive

---

# assay-summary: Cellular Toxicity (caspase-3) Mesangial (AID 660);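 further: combined caspase 3 and 7 activity read by Caspase-Glo luminescence; cells exposed to compound for 16 h before the caspase read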
# condition: mesangial cells; caspase-3 activation; series mostly up to 91.7 µM
Active and inactive are the calls of the source. Calls follow the shape of the dose curve; as a rule, active = well fitted activation curve with a large enough effect; inconclusive = small, poorly fitted or top-dose-only effect; inactive = flat fitted curve, though single readings scatter.
assay-endpoint: outcome

A selection of reference data follows.
Nc1ccc(O)c([N+](=O)[O-])c1 ... inactive
CCCOC(=O)c1ccc(O)cc1 ... inactive
N=C1N=C(N)c2cc3ccccc3cc21 ... inactive
c1ccc2sc(SSc3nc4ccccc4s3)nc2c1 ... inactive

Enquiry: Determine from records and report outcome for CN(C)c1ccc(N=NS(=O)(=O)O)cc1
Return: inactive

Enquiry: Determine from records and report outcome for COc1cc(CNC(=O)CCCC/C=C/C(C)C)ccc1O
Return: inactive

Enquiry: Determine from records and report outcome for O=C1CN(/N=C/c2ccc([N+](=O)[O-])o2)C(=O)N1
Return: inactive

Origin of the recorded values: PubChem BioAssay (NCATS)
